- TEST_NAME: Inhibition of Mucor hiemalis endo-beta-N-acetylglucosaminidase after 5 mins by HPAEC-PED method
pIC50: −log10 of the molar value.
MEASURED_QUANTITY: pIC50

SMILES_TEXT: CC1=N[C@@H]2[C@@H](O)[C@H](O[C@@H]3O[C@H](CO[C@H]4O[C@H](CO)[C@@H](O)[C@H](O)[C@@H]4O)[C@@H](O)[C@H](O[C@@H]4O[C@H](CO)[C@@H](O)[C@H](O)[C@@H]4O)[C@@H]3O)[C@@H](CO)O[C@H]2S1
pIC50: 4.19

SMILES_TEXT: CC1=N[C@@H]2[C@@H](O)[C@H](O[C@@H]3O[C@H](CO)[C@@H](O)[C@H](O)[C@@H]3O)[C@@H](CO)O[C@H]2S1
pIC50: 4.10

###

- MEASURED_ON: Endo-beta-N-acetylglucosaminidase (Arthrobacter protophormiae)
- Sequence (Q9ZB22 whole entry): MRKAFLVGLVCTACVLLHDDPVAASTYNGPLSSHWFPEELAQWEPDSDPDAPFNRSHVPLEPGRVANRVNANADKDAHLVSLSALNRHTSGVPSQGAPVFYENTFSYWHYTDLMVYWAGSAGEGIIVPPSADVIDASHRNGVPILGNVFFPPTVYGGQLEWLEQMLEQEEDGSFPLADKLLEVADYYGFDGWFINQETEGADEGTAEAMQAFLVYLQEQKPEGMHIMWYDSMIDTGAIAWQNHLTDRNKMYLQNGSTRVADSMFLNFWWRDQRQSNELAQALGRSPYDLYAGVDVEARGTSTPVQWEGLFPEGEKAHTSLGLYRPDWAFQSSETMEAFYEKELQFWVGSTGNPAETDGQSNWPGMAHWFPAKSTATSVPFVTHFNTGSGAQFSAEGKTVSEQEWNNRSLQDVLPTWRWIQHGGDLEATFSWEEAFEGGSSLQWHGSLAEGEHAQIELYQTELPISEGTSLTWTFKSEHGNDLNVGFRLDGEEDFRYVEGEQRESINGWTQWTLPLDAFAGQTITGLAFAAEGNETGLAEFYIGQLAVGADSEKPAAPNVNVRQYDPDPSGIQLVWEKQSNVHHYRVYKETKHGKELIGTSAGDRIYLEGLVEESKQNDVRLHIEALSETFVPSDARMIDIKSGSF
MEASURED_QUANTITY: pIC50
Recall that pIC50 is obtained by taking minus log10 of the concentration measured in molar.

input: Supply measured pIC50 of `CC1=N[C@@H]2[C@@H](O)[C@H](O[C@@H]3O[C@H](CO)[C@@H](O)[C@H](O)[C@@H]3O)[C@@H](CO)O[C@H]2S1` in your reply.
output: 4.42
